This collection of values is drawn from PubChem BioAssay (EPA / NIEHS).

Experiment: ATG_EGR_CIS: Attagene CIS-FACTORIAL HepG2 Assay for human Early Growth Response 1 (EGR1) (AID 2282938)
Settings: HepG2 Attagene CIS-FACTORIAL EGR reporter mRNA; actives raise or lower the signal
Active and inactive are the calls of the source. How the source made its calls: active means hit-call score of the fitted dose curve at least 0.9, where 1 is the maximum; inactive means score below 0.9.
Field 'call' accepts YES for active, NO for inactive

# example entries with known answers
Query: Called result for `CCN(CCN)c1cccc(C)c1`
Response: NO

Query: # lookup: test call for CCCCCCC(CO)CCCC (stereo not drawn)
Response: NO

Query: What did this assay record as the result for `CC(C)(C)OC(=O)c1ccc(O)cc1` ?
Response: NO

Query: Called result for Cc1c(OCC(F)(F)F)ccnc1CS(=O)c1nc2ccccc2[nH]1 (stereo not drawn)
Response: YES

Next:
Query: Hi team, can someone confirm the assay call for CCCCCCC(C)Nc1ccc(Nc2ccccc2)cc1 (stereo not drawn) ?
Response: NO

Query: What is the recorded call for this compound in the test? `CCOC(=O)COC(=O)c1cc(Oc2ccc(C(F)(F)F)cc2Cl)ccc1[N+](=O)[O-]`
Response: NO

Query: Fill in: this test's call for `COC(=O)C=C(C)CCC=C(C)C` is ___
Response: NO

Query: # outcome recorded in this test, key = `Cc1cc(S(=O)(=O)O)ccc1N=Nc1c(O)ccc2ccccc12`
Response: NO

Query: // return assay outcome for `C=C1CC[C@H](O)C/C1=C/C=C1\CCC[C@]2(C)[C@@H]([C@H](C)/C=C/[C@H](C)C(C)C)CC[C@@H]12`
Response: NO

Query: Hi, do you know how `Cc1ccc(C)o1` came out in this test?
Response: NO

Query: Per the assay record, what outcome was assigned to `CCCCC(CC)(CO)CO` ?
Response: NO

Query: # fetch the recorded call for `CCOCCOCCOCC` here
Response: NO

Query: What classification did `O=C(CS)OCCOC(=O)CS` end up with in this test?
Response: NO

---

Assay: CCTE_Harrill_HTTr_Viability_MCF7: CCTE's 6-hour Cell Viability Assessment for the High-Throughput Transcriptomics (HTTr) Platform, in MCF-7 cells cultured in DMEM + 10% fetal bovine serum, Harrill Lab (AID 2284010)
Active and inactive are the calls of the source. The calls were made as follows: active = hit-call score of the fitted dose curve at least 0.9, where 1 is the maximum; inactive = score below 0.9.
Outcome field: choose from active, inactive

Examples from the recorded data:
Query: What is the recorded call for this molecule in the test? `OCC#CCO`
Response: inactive

Query: Name the outcome recorded for `CC1=CC[C@@]23C[C@@H]1C(C)(C)[C@@H]2CC[C@H]3C` in the assay.
Response: inactive

Query: Could you check what this test reported for `CN(c1nccc(=O)[nH]1)C1CCN(c2nc3ccccc3n2Cc2ccc(F)cc2)CC1` ?
Response: inactive

Query: // return assay outcome for `O=C1c2ccccc2C(=O)c2c(O)ccc(O)c21`
Response: inactive

Query: GET /call?item= `COc1cc([C@@H]2c3cc4c(cc3[C@@H](O[C@@H]3O[C@@H]5CO[C@@H](C)O[C@H]5[C@H](O)[C@H]3O)[C@H]3COC(=O)[C@H]23)OCO4)cc(OC)c1O` returns the recorded outcome of this test.
Response: inactive

Query: Record lookup: outcome of this test for CCCC1O[C@@H]2C[C@H]3[C@@H]4CCC5=CC(=O)C=C[C@]5(C)[C@H]4[C@@H](O)C[C@]3(C)[C@]2(C(=O)CO)O1 (stereo partly drawn) ?
Response: inactive

Others:
Query: Field: outcome | Entry: `CC(C)(C)CC(C)(C)c1ccc(OCCOCC[N+](C)(C)Cc2ccccc2)cc1`
Response: inactive

Query: For CN(C)CCOC(C)(c1ccccc1)c1ccccn1 (stereo not drawn) , what call appears in the results of this test?
Response: inactive

Query: Which outcome was entered for the molecule `CC(C)c1ccccc1O` in this test?
Response: inactive

Query: Hi, do you know how `CCc1cc(Cc2cc(CC)cc(C(C)(C)C)c2O)c(O)c(C(C)(C)C)c1` came out in this test?
Response: inactive

Query: Please share the test call associated with `C=C1CC[C@H](O)C/C1=C/C=C1\CCC[C@]2(C)[C@@H]([C@H](C)/C=C/[C@H](C)C(C)C)CC[C@@H]12` .
Response: inactive

Query: // param item: `CCCCC1(COC(=O)CCC(=O)O)C(=O)N(c2ccccc2)N(c2ccccc2)C1=O` ; yields the recorded call
Response: inactive

Query: Dear colleague, could you share the recorded outcome for `C[C@H](CCC(=O)NCC(=O)O)[C@H]1CC[C@H]2[C@@H]3[C@H](O)C[C@@H]4C[C@H](O)CC[C@]4(C)[C@H]3C[C@H](O)[C@]12C` when you have a moment?
Response: inactive

Query: // return assay outcome for `Nc1ccccc1[N+](=O)[O-]`
Response: inactive

---

Target: human Thyroid Receptor Alpha (TRa), THRA (gene 7067) (UniProt P10827)
Sequence (P10827 whole entry, looked up): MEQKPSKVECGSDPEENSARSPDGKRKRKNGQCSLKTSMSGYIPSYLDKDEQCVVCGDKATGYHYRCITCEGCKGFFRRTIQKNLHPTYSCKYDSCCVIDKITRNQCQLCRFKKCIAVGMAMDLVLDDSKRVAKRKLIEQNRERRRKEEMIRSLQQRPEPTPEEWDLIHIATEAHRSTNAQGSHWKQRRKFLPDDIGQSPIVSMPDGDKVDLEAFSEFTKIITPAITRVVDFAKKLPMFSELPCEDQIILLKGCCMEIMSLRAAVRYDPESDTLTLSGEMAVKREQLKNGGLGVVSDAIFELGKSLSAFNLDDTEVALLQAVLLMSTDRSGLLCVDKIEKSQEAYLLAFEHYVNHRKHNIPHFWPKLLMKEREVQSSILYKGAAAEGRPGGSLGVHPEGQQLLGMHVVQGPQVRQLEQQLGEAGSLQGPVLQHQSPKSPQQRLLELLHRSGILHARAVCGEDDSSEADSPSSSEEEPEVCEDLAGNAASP
Test: NVS_NR_hTRa_Antagonist: NovaScreen (NVS) Nuclear Receptor Binding Assay for human Thyroid Receptor Alpha Antagonism (TRa) (AID 2283362);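 further: activity is loss of signal relative to DMSO baseline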
Inconclusive results are not listed. Calls of active or inactive are those of the source. How the source made its calls: active means hit-call score of the fitted dose curve at least 0.9, where 1 is the maximum; inconclusive means response in the unintended direction; inactive means score below 0.9.
Log the outcome using a class from class 1 for active, class 0 for inactive

Query: Hi, do you know how `Oc1ccc2cc(SSc3ccc4cc(O)ccc4c3)ccc2c1` came out in this test?
Response: class 0

Query: // return assay outcome for `COc1ccccc1N=Nc1c(S(=O)(=O)O)cc2cc(S(=O)(=O)O)cc(NC(C)=O)c2c1O`
Response: class 1

Query: Assay result, entry `CCOc1ccc(N=Nc2ccc(C=Cc3ccc(N=Nc4ccc(OCC)cc4)cc3S(=O)(=O)O)c(S(=O)(=O)O)c2)cc1` — outcome?
Response: class 1

---
Query: Per the assay record, what outcome was assigned to `Cc1ccc(S(=O)(=O)Oc2ccc(N=Nc3ccc(-c4ccc(N=Nc5c(O)ccc6cc(S(=O)(=O)O)cc(S(=O)(=O)O)c56)c(C)c4)cc3C)cc2)cc1` ?
Response: class 1

Query: Recorded call for `CC1(C)C(=O)N(Cl)C(=O)N1Br` ?
Response: class 0

Query: Would you mind telling me which call this test gave `Cc1cc(S(=O)(=O)O)ccc1N=Nc1c(O)ccc2ccccc12` ?
Response: class 1

Query: What did this assay record as the result for `Nc1ccc2cc(S(=O)(=O)O)cc(O)c2c1N=Nc1ccccc1C(F)(F)F` ?
Response: class 1

---

Test: NVS_IC_rCaBTZCHL: NovaScreen (NVS) Ion Channel Assay for Calcium Channel, Type L, Benzothiazepine Site (CaBTZCHL) (AID 2283337)
Results filed as inconclusive are left out. Active and inactive are the calls of the source. The calls were made as follows: active = hit-call score of the fitted dose curve at least 0.9, where 1 is the maximum; inconclusive = response in the unintended direction; inactive = score below 0.9.
Readout: AC50

Take a look at these entries with their results.
Query: Given the compound `c1ccc(Oc2ccccc2)cc1` , write its reported AC50.
Response: inactive

Query: Input `COc1ccc(CCN2CCC(Nc3nc4ccccc4n3Cc3ccc(F)cc3)CC2)cc1` , output reported AC50.
Response: 2.18 µM (active)

Query: Supply recorded AC50 for `CN(c1nccc(=O)[nH]1)C1CCN(c2nc3ccccc3n2Cc2ccc(F)cc2)CC1` here.
Response: inactive

Query: Give recorded AC50. `CC(C)(C)CC(C)(C)c1ccc(OCCOCC[N+](C)(C)Cc2ccccc2)cc1`
Response: 2.81 µM (active)

More entries:
Query: Using known records, supply AC50 for `CCCCOC(=O)CCCCCCCC(=O)OCCCC`
Response: inactive

---

Test: ATG_E_Box_CIS: Attagene CIS-FACTORIAL HepG2 Assay for human Enhancer Box (E-box) (AID 2282936)
Conditions: HepG2 E-box cis-reporter transcription, actives raise or lower the signal
Method: ATG_CIS is a cell-based, multiplexed-readout assay that uses HepG2, a human liver cell line, with measurements taken at 24 hours after chemical dosing in a 24-well plate.ATG_E_Box_CIS is one of 52 assay component(s) measured or calculated from the ATG_CIS assay. […] This assay endpoint, ATG_E_Box_CIS, was analyzed with bidirectional fitting relative to DMSO as the negative control and baseline of activity. […]
Calls of active or inactive are those of the source. How the source made its calls: active means hit-call score of the fitted dose curve at least 0.9, where 1 is the maximum; inactive means score below 0.9.
Assign a class; possible classes are active, inactive

Query: Dear colleague, could you share the recorded outcome for `CC1(C)O[C@@H]2[C@@H](CO[C@@]3(COS(N)(=O)=O)OC(C)(C)O[C@@H]23)O1` when you have a moment?
Response: inactive

Query: For CCCC(O)C(O)CO (configuration not stated) , what call appears in the results of this test?
Response: inactive

Query: Look up the recorded call for `Clc1cc(Cl)c(-c2c(Cl)c(Cl)cc(Cl)c2Cl)cc1Cl` in this test.
Response: inactive

Query: Record lookup: outcome of this test for `CCCCCCCCCC(=O)OC` ?
Response: inactive

Query: For `COC(=O)c1cccnc1` , what call appears in the results of this test?
Response: inactive

---
Query: Hey, what did the test say about CCCCCCCC(=O)OCC(O)CO (configuration not stated) ?
Response: inactive

Query: How did this test come out for `COc1cccc(OC)c1O` ?
Response: inactive

Query: recorded result category for `CCCCOCC` in this test
Response: inactive

Query: Please indicate how the test categorized `O=CCc1ccccc1` .
Response: inactive

Query: Answer briefly: the call reported for `CC1=NN(c2ccc(S(=O)(=O)O)cc2)C(=O)C1` in this assay.
Response: inactive

Query: What outcome does the record of this test show for `CN1C(=O)c2ccccc2C1=O` ?
Response: inactive

Query: Look up the recorded call for `C[C@H]1O[C@@H](O[C@H]2[C@@H](O)C[C@H](O[C@H]3[C@@H](O)C[C@H](O[C@H]4CC[C@@]5(C)[C@H](CC[C@@H]6[C@@H]5C[C@@H](O)[C@]5(C)[C@@H](C7=CC(=O)OC7)CC[C@]65O)C4)O[C@@H]3C)O[C@@H]2C)C[C@H](O)[C@@H]1O` in this test.
Response: inactive

Query: Field: outcome | Entry: `COc1ccc(COC(C)=O)cc1`
Response: inactive

Query: Assay outcome for CC(C)CC(C)CC(O)CC(C)C (configuration not stated) : what was it?
Response: inactive

Query: Please share the test call associated with `O=C(O)CCCCCCCCCCCC(=O)O` .
Response: inactive

Query: Returns: the outcome recorded for `CC1(C)CCC[C@]2(C)[C@H]3CCO[C@]3(C)CC[C@@H]12` in this assay.
Response: active

Query: Could you kindly confirm the outcome this assay logged for CC(=O)O[C@@H]1CC2CCC1(C)C2(C)C (some centres not stated) ?
Response: inactive

Query: Please share the test call associated with `CC(=O)O[C@@H]1C[C@@H]2CC[C@@]1(C)C2(C)C` .
Response: inactive

Query: Answer briefly: the call reported for C=C[Si]1(C)O[Si](C)(C=C)O[Si](C)(C=C)O[Si](C)(C=C)O1 (configuration not stated) in this assay.
Response: inactive

Query: Per the records of this test, what outcome belongs to `CC1(C)C(=O)N(Cl)C(=O)N1Br` ?
Response: inactive

Query: Recorded call for `CCCCCC(C=O)=Cc1ccccc1` ?
Response: inactive

Query: Returns: the outcome recorded for `O=[N+]([O-])c1cccc(Cl)c1` in this assay.
Response: inactive
